Origin of the recorded values: the supplement of paper PMC9112550

Tested on: Escherichia coli TOP10
ASSAY_EXPLANATION: shrunken log2 fold change of peptide-encoding DNA abundance (4.5 h post-induction vs induction); higher = less antimicrobial activity (less host growth inhibition)
EXPERIMENTAL_CONDITIONS: time post-induction: 4.5 h; library: site-saturation at positions 5, 18, 19, 20
Classes are defined on shrunken log2 fold change with ranges bucket A (below -0.09), bucket B (-0.09 to below 0.1), bucket C (0.1 or more)

Check out these entries, answers already filled in.
{"columns": ["BIOPOLYMER_SEQUENCE", "ASSIGNED_CATEGORY"],
 "data": [
  ["RRIRNRPPRLPRPRPRPMMPPRP", "bucket B"],
  ["RRIRMRPPRLPRPRPRPSLWPRP", "bucket C"],
  ["RRIRARPPRLPRPRPRPPYMPRP", "bucket A"],
  ["RRIRARPPRLPRPRPRPHYAPRP", "bucket B"],
  ["RRIRKRPPRLPRPRPRPISNPRP", "bucket C"],
  ["RRIRPRPPRLPRPRPRPKAPPRP", "bucket C"]
]}

Which class holds RRIRTRPPRLPRPRPRPRLNPRP ?
bucket A

Which class holds RRIRERPPRLPRPRPRPQDPPRP ?
bucket A

Which class holds RRIRKRPPRLPRPRPRPSRSPRP ?
bucket B

Which class holds RRIRCRPPRLPRPRPRPSELPRP ?
bucket A

Which class holds RRIRDRPPRLPRPRPRPFKMPRP ?
bucket B

Which class holds RRIRDRPPRLPRPRPRPNVPPRP ?
bucket B

Which class holds RRIRMRPPRLPRPRPRPMKHPRP ?
bucket B

Which class holds RRIRCRPPRLPRPRPRPRGYPRP ?
bucket C

Which class holds RRIRWRPPRLPRPRPRPRWTPRP ?
bucket C

Which class holds RRIRERPPRLPRPRPRPQVPPRP ?
bucket A

Which class holds RRIRKRPPRLPRPRPRPKAPPRP ?
bucket C

Which class holds RRIRSRPPRLPRPRPRPSADPRP ?
bucket B

Which class holds RRIRSRPPRLPRPRPRPSCLPRP ?
bucket A

---

Tested on: Escherichia coli TOP10
ASSAY_EXPLANATION: shrunken log2 fold change of peptide-encoding DNA abundance (4.5 h post-induction vs induction); higher = less antimicrobial activity (less host growth inhibition)
EXPERIMENTAL_CONDITIONS: time post-induction: 4.5 h; library: site-saturation at positions 5, 18, 19, 20
MEASURED_PROPERTY: shrunken log2 fold change
# answer = number (no unit)

Example entries and their recorded answers appear below.
{"columns": ["BIOPOLYMER_SEQUENCE", "shrunken log2 fold change"],
 "data": [
  ["RRIRDRPPRLPRPRPRPHSKPRP", -0.456],
  ["RRIRKRPPRLPRPRPRPNLVPRP", -0.0428],
  ["RRIRVRPPRLPRPRPRPHYIPRP", -0.589],
  ["RRIRRRPPRLPRPRPRPCTRPRP", 0.0341],
  ["RRIRRRPPRLPRPRPRPCDHPRP", 0.0118]
]}

The measured shrunken log2 fold change associated with RRIRHRPPRLPRPRPRPDPPPRP reads 0.232

The measured shrunken log2 fold change associated with RRIRARPPRLPRPRPRPIFYPRP reads -0.0773

---

Test system: Escherichia coli TOP10
ASSAY_EXPLANATION: shrunken log2 fold change of peptide-encoding DNA abundance (4.5 h post-induction vs induction); higher = less antimicrobial activity (less host growth inhibition)
EXPERIMENTAL_CONDITIONS: time post-induction: 4.5 h; library: site-saturation at positions 5, 18, 19, 20
Parameter threshold = 0.2. Response is Condition met when shrunken log2 fold change meets or exceeds it, else Condition not met.

Check out these entries, answers already filled in.
{"columns": ["BIOPOLYMER_SEQUENCE", "ASSIGNED_CATEGORY"],
 "data": [
  ["RRIRCRPPRLPRPRPRPWARPRP", "Condition not met"],
  ["RRIRCRPPRLPRPRPRPDQHPRP", "Condition not met"],
  ["RRIRWRPPRLPRPRPRPTMVPRP", "Condition not met"]
]}

Test whether the sequence RRIRTRPPRLPRPRPRPWFRPRP records shrunken log2 fold change of 0.2 or higher.
Condition not met

Test whether the sequence RRIRCRPPRLPRPRPRPNACPRP records shrunken log2 fold change of 0.2 or higher.
Condition not met

Test whether the sequence RRIRARPPRLPRPRPRPCITPRP records shrunken log2 fold change of 0.2 or higher.
Condition not met

Test whether the sequence RRIRGRPPRLPRPRPRPVQLPRP records shrunken log2 fold change of 0.2 or higher.
Condition not met

Test whether the sequence RRIRARPPRLPRPRPRPIAMPRP records shrunken log2 fold change of 0.2 or higher.
Condition met

Test whether the sequence RRIRGRPPRLPRPRPRPNWLPRP records shrunken log2 fold change of 0.2 or higher.
Condition met

Test whether the sequence RRIRSRPPRLPRPRPRPAWGPRP records shrunken log2 fold change of 0.2 or higher.
Condition met

---

Tested on: Escherichia coli TOP10
ASSAY_EXPLANATION: shrunken log2 fold change of peptide-encoding DNA abundance (4.5 h post-induction vs induction); higher = less antimicrobial activity (less host growth inhibition)
EXPERIMENTAL_CONDITIONS: time post-induction: 4.5 h; library: site-saturation at positions 5, 18, 19, 20
MEASURED_PROPERTY: shrunken log2 fold change
# answer = number (no unit)

{"columns": ["BIOPOLYMER_SEQUENCE", "MEASUREMENT"],
 "data": [
  ["RRIRERPPRLPRPRPRPDHGPRP", -0.00973],
  ["RRIRERPPRLPRPRPRPLYTPRP", -0.41],
  ["RRIRFRPPRLPRPRPRPFTVPRP", -0.246],
  ["RRIRIRPPRLPRPRPRPMSQPRP", -0.119],
  ["RRIRGRPPRLPRPRPRPLRVPRP", 1]
]}

The measured shrunken log2 fold change associated with RRIRWRPPRLPRPRPRPNIRPRP reads -0.135

The measured shrunken log2 fold change associated with RRIRDRPPRLPRPRPRPHAPPRP reads 0.144

The measured shrunken log2 fold change associated with RRIRERPPRLPRPRPRPAPQPRP reads 0.31

The measured shrunken log2 fold change associated with RRIRWRPPRLPRPRPRPDHCPRP reads -0.00992

The measured shrunken log2 fold change associated with RRIRGRPPRLPRPRPRPCRWPRP reads 0.611

The measured shrunken log2 fold change associated with RRIRYRPPRLPRPRPRPVAIPRP reads -0.702

---

Test system: Escherichia coli TOP10
ASSAY_EXPLANATION: shrunken log2 fold change of peptide-encoding DNA abundance (4.5 h post-induction vs induction); higher = less antimicrobial activity (less host growth inhibition)
EXPERIMENTAL_CONDITIONS: time post-induction: 4.5 h; library: site-saturation at positions 5, 18, 19, 20
// reported shrunken log2 fold change per item
# answer = number (no unit)

Example entries and their recorded answers appear below.
{"columns": ["BIOPOLYMER_SEQUENCE", "shrunken log2 fold change"],
 "data": [
  ["RRIRNRPPRLPRPRPRPRAWPRP", -0.054],
  ["RRIRKRPPRLPRPRPRPVDHPRP", 0.147],
  ["RRIRQRPPRLPRPRPRPMANPRP", -0.18],
  ["RRIRKRPPRLPRPRPRPPFAPRP", 0.745],
  ["RRIRSRPPRLPRPRPRPDMPPRP", -0.0754],
  ["RRIRFRPPRLPRPRPRPYWHPRP", -0.754]
]}

The measured shrunken log2 fold change associated with RRIRLRPPRLPRPRPRPITTPRP reads -0.283

The measured shrunken log2 fold change associated with RRIRHRPPRLPRPRPRPLYFPRP reads -0.816

The measured shrunken log2 fold change associated with RRIRGRPPRLPRPRPRPQWFPRP reads 0.282

The measured shrunken log2 fold change associated with RRIRRRPPRLPRPRPRPLEKPRP reads 0.477

The measured shrunken log2 fold change associated with RRIRLRPPRLPRPRPRPRTNPRP reads 0.113

The measured shrunken log2 fold change associated with RRIRCRPPRLPRPRPRPFYNPRP reads -1.05

---

System: Escherichia coli TOP10;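 note: peptides expressed intracellularly from a pBAD plasmid library in pooled LB shake-flask culture, induced with 0.3% L-arabinose, DNA abundance read by NGS, three biological replicates, DESeq2 with apeglm shrinkage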
ASSAY_EXPLANATION: shrunken log2 fold change of peptide-encoding DNA abundance (4.5 h post-induction vs induction); higher = less antimicrobial activity (less host growth inhibition)
EXPERIMENTAL_CONDITIONS: time post-induction: 4.5 h; library: site-saturation at positions 5, 18, 19, 20
Classes are defined on shrunken log2 fold change with ranges lowest = under 0.04, middle = from 0.04 up to 0.1, highest = 0.1 and over

Check out these entries, answers already filled in.
{"columns": ["BIOPOLYMER_SEQUENCE", "ASSIGNED_CATEGORY"],
 "data": [
  ["RRIRCRPPRLPRPRPRPFHRPRP", "lowest"],
  ["RRIRDRPPRLPRPRPRPKMNPRP", "lowest"],
  ["RRIRIRPPRLPRPRPRPRTGPRP", "lowest"]
]}

Which class holds RRIRARPPRLPRPRPRPEMWPRP ?
highest

Which class holds RRIRDRPPRLPRPRPRPKNEPRP ?
lowest

Which class holds RRIRRRPPRLPRPRPRPGQVPRP ?
highest

Which class holds RRIRWRPPRLPRPRPRPCRSPRP ?
middle

Which class holds RRIRYRPPRLPRPRPRPAAEPRP ?
highest
